System: HIV
ASSAY_REMARKS: HIV infection in cell culture (syncytia formation; PBLs or H9 cells)
Type: cell-based
RUN_PARAMETERS: Human immunodeficiency virus 1, H9, 72 h, read-out: IC50 (concentration at which 50% of the virus-induced syncytia were suppressed)
Experimental: The HIV test was carried out with slight modifications according to the method of Pauwels et al. [cf. Journal of Virological Methods 20, (1988), 309-321]. […] The test batches were incubated at 37° C. until, in the untreated virus control, the syncytia formation typical of HIV occurred (between day 3 and 6 after infection), which was then microscopically assessed. […]
PARAMETER_MEASURED: pIC50
# pIC50: negative log10 of molar concentration; output just the value

Recorded pIC50 for Cc1ccnc2c1NC(=O)c1cccnc1N2C1CC1 [BIRG 587, reference compound] , please? 7.05

Ref: patent US5545736A
